Data provenance: PubChem BioAssay (NCI)

- Tested on: MCF7 breast
- Assay text: NCI-60 one-dose screen, 48 h
- Recorded conditions: 10 µM unless noted
The panel holds about 83,000 compounds, 20% with a hit somewhere; the sample as a whole holds those more often. The source made the active and inactive calls. Rule for the calls: active = growth percent below 10; inactive = the rest.
Please answer using one outcome listed in Y = active, N = inactive

- CCCCCCCCNC(=O)c1ccc(Cn2c(CCCC)nc3c(N)nc4ccccc4c32)cc1: Y
- Oc1ccc(CSc2nnc(-c3cnccn3)n2-c2ccccc2)c2cccnc12: Y
- COc1cccc(/C=C/C(=O)c2ccc(NC(=O)COc3cccc4cccnc34)cc2)c1: N
- O=C(/C=C/Nc1ccc(S(=O)(=O)O)cc1)c1ccc(F)cc1: N
- CCOC(=O)c1c(NC(=O)c2ccc(C(C)(C)C)cc2)sc2cc(OCCN3CCCCC3)ccc12: N

Which result was noted for this compound in the test: CCN1CCN(Cc2ccc(C(=O)Nc3nc4ccc(Oc5ccnc(C(=O)NC)c5)cc4s3)cc2C(F)(F)F)CC1 N

Which result was noted for this compound in the test: Cc1ccc(NC(=O)c2ccc(CN3CCN(C)CC3)c(I)c2)cc1Oc1ccc(-c2[nH]nc3ncnc(N)c23)cc1 Y

Which result was noted for this compound in the test: CCOC(=O)/C(F)=C/C1CC1C1CCCCC1 (stereo not drawn) N
